The values you see were collected from patent US20220025023A1.

Target Desc: T1, TP-27 (also: biotinylated, site not given here)
T1 construct: also called TP-27 peptide
T1 peptide: ADDQIAQSLCGEDLI
Protocol Notes: indirect ELISA, biotinylated 15-mer on streptavidin plate, hybridoma supernatant
Where no end group is shown, it is not given here.
Measurement Label: binding result

ACI-7062-406E3-Ab1 (antibody, IgG2a, V domains shown, also called 406E3D5; clone 5) VH: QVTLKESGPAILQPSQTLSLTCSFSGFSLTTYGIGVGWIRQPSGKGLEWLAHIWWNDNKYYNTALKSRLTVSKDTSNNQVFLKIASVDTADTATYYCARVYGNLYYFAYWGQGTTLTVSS VL: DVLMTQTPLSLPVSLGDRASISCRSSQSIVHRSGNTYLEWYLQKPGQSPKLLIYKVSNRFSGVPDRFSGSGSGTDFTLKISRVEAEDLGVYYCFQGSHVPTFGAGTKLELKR ... no binding
ACI-7062-412A7-Ab1 (antibody, IgG2b, V domains shown, also called 412A7B7; clone 9) VH: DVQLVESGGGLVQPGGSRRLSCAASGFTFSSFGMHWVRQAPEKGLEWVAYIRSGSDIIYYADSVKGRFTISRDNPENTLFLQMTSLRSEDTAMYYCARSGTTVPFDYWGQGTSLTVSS VL: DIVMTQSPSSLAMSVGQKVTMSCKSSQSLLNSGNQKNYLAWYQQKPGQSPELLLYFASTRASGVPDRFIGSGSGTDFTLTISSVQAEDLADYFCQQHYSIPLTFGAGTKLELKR ... no binding
ACI-7062-410H3-Ab1 (antibody, IgG1, V domains shown, also called 410H3B9; clone 7) VH: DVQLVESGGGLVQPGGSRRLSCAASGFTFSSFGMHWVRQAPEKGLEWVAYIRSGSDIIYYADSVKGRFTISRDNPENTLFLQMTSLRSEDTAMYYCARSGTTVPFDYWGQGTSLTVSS VL: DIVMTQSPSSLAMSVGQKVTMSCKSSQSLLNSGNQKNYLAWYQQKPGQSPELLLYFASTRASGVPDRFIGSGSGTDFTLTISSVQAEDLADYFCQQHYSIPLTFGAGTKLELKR ... no binding
